Where do the numbers come from? From ChEMBL document CHEMBL5046253.

Hi there, I'd appreciate the recorded pIC50 for every entry that follows.
# study-target: Phosphatidylinositol 4,5-bisphosphate 3-kinase catalytic subunit delta isoform (Homo sapiens, UniProt O00329)
# Sequence (O00329 whole entry, canonical isoform): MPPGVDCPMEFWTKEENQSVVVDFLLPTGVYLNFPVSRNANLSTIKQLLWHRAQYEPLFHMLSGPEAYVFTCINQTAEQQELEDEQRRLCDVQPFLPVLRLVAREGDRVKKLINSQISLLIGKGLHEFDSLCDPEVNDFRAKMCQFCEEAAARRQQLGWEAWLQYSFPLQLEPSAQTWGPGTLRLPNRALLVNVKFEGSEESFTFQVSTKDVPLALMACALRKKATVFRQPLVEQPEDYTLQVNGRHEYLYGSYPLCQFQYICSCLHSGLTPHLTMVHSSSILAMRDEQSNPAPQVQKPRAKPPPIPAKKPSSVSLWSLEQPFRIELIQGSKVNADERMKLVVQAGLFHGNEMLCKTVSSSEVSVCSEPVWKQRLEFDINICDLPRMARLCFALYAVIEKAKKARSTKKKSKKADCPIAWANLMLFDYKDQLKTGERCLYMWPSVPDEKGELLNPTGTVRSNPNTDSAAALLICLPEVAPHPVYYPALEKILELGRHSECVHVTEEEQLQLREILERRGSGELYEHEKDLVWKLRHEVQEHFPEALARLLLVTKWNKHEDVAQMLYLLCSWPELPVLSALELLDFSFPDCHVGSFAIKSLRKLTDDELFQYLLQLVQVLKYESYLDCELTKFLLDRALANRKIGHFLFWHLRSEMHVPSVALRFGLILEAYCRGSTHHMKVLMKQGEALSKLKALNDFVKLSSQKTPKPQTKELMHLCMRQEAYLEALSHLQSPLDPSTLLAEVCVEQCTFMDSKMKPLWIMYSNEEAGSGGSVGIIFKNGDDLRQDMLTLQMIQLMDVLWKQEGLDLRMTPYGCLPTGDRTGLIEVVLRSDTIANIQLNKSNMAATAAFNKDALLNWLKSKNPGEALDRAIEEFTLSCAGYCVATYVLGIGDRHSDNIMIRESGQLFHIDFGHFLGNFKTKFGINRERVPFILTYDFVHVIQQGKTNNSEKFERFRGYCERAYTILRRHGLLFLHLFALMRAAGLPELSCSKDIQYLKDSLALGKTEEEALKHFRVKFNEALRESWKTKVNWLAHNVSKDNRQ
# experiment-notes: Inhibition of PI3Kdelta (unknown origin) using PIP2 as substrate in presence of ATP incubated for 60 mins by ADP-glo based luminescence assay
One number for each entry, as −log10 of the molar value.

Quick one: pIC50 of C[C@@H](NC(=O)c1ccc(NC(=O)Nc2ccc(-c3nc(N4CCOCC4)nc(N4CCOCC4)n3)cc2)cc1)C(N)=O ? 7.60

Quick one: pIC50 of CN(C)[C@@H]1C[C@@H](C(N)=O)N(C(=O)c2ccc(NC(=O)Nc3ccc(-c4nc(N5CCOCC5)nc(N5CCOCC5)n4)cc3)cc2)C1 ? 7.54

Quick one: pIC50 of C[C@H](NC(=O)c1ccc(NC(=O)Nc2ccc(-c3nc(N4CCOCC4)nc(N4CCOC[C@@H]4C)n3)cc2)cc1)C(N)=O ? 7.36

Quick one: pIC50 of NC(=O)[C@@H]1CC(O)CN1C(=O)c1ccc(NC(=O)Nc2ccc(-c3nc(N4CCOCC4)nc(N4CCOCC4)n3)cc2)cc1 (stereo partly specified) ? 7.79

Quick one: pIC50 of NC(=O)[C@@H]1CCCN1C(=O)c1ccc(NC(=O)Nc2ccc(-c3nc(N4CCOCC4)nc(N4CCOCC4)n3)cc2)cc1 ? 7.56

Attention now shifts to the item below.
Quick one: pIC50 of NC(=O)[C@H]1CCCN1C(=O)c1ccc(NC(=O)Nc2ccc(-c3nc(N4CCOCC4)nc(N4CCOCC4)n3)cc2)cc1 ? 7.89

###

# System: BaF3
# experiment-notes: Antiproliferative activity against mouse BaF3 cells harboring EGFR L858R/T790M/C797S mutant assessed as reduction in cell viability incubated for 72 hrs by celltiter-glo assay
# Format: toxicity, cell-based
# condition-set: BaF3, 72 h
property-label: pIC50
One number for each entry, as −log10 of the molar value.

Quick one: pIC50 of CN(C)[C@@H]1C[C@@H](C(N)=O)N(C(=O)c2ccc(NC(=O)Nc3ccc(-c4nc(N5CCOCC5)nc(N5CCOCC5)n4)cc3)cc2)C1 ? 5.47

Quick one: pIC50 of NC(=O)C1CCN(C(=O)c2ccc(NC(=O)Nc3ccc(-c4nc(N5CCOCC5)nc(N5CCOCC5)n4)cc3)cc2)CC1 ? 6.53

Quick one: pIC50 of NC(=O)C1CCCN(C(=O)c2ccc(NC(=O)Nc3ccc(-c4nc(N5CCOCC5)nc(N5CCOCC5)n4)cc3)cc2)C1 (stereo unspecified) ? 6.53

Quick one: pIC50 of NC(=O)[C@@H]1CCCN1C(=O)c1ccc(NC(=O)Nc2ccc(-c3nc(N4CCOCC4)nc(N4CCOCC4)n3)cc2)cc1 ? 6.66

Quick one: pIC50 of NC(=O)[C@@H]1CC(O)CN1C(=O)c1ccc(NC(=O)Nc2ccc(-c3nc(N4CCOCC4)nc(N4CCOCC4)n3)cc2)cc1 (stereo partly specified) ? 5.57

Attention now shifts to the item below.
Quick one: pIC50 of C[C@@H](NC(=O)c1ccc(NC(=O)Nc2ccc(-c3nc(N4CCOCC4)nc(N4CCOCC4)n3)cc2)cc1)C(N)=O ? 6.26

###

Hi there, I'd appreciate the recorded pIC50 for every entry that follows.
# study-target: Serine/threonine-protein kinase mTOR (Homo sapiens)
Numbers only, as −log10 of the molar value.

Quick one: pIC50 of C[C@@H]1COCCN1c1nc(-c2ccc(NC(=O)Nc3ccc(C(=O)N4CCC[C@H]4C(N)=O)cc3)cc2)nc(N2CCOCC2)n1 ? 9.00

Quick one: pIC50 of C[C@H](NC(=O)c1ccc(NC(=O)Nc2ccc(-c3nc(N4CCOCC4)nc(N4CCOC[C@@H]4C)n3)cc2)cc1)C(N)=O ? 9.05

Quick one: pIC50 of CN(C)C1CCN(C(=O)c2ccc(NC(=O)Nc3ccc(-c4nc(N5CCOCC5)nc(N5C[C@@H]6OCCO[C@H]6C5)n4)cc3)cc2)CC1 ? 8.32

Attention now shifts to the item below.
Quick one: pIC50 of NC(=O)C1CCN(C(=O)c2ccc(NC(=O)Nc3ccc(-c4nc(N5CCOCC5)nc(N5CCOCC5)n4)cc3)cc2)CC1 ? 8.72
